# maps each entry to its self-aminoacylation
- Tested on: biotinyl-Ile-oxazolone
- protocol_description: self-aminoacylation, catalytic enhancement (BIO) (fold over background); higher = more active; k-Seq, kA / k0A0; sequences stand for … in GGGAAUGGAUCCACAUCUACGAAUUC…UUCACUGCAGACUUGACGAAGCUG
Fewer inactive variants are shown than the library holds.
metric_name: self-aminoacylation

# residue_codes, metric_name, reported
records = [
    ("CCACACUUCAAGCAGGCGGUC [Fam1B.1 aminoacylation ribozyme variant]", "self-aminoacylation", 1.86),
    ("AUUACCCUGGUUCUCGAGUGA [Fam2.1 aminoacylation ribozyme variant]", "self-aminoacylation", 1.78),
    ("CGAAACUUCAAGCAAUCGGUC [Fam1B.1 aminoacylation ribozyme variant]", "self-aminoacylation", 1.17),
    ("AUUCAGGUAGGUCAUCGGGUG [Fam2.2 aminoacylation ribozyme variant]", "self-aminoacylation", 3.68),
    ("AUUUCCCUGGCCAUCGAGUGA [Fam2.1 aminoacylation ribozyme variant]", "self-aminoacylation", 1.72),
    ("CUACUUCAAACAAGCGGUUUG [Fam1A.1 aminoacylation ribozyme variant]", "self-aminoacylation", 0.89),
    ("AUUGACCUAGGGCAUCGGGUG [Fam2.2 aminoacylation ribozyme variant]", "self-aminoacylation", 3.23),
    ("UAGUUUACUAAUAGUCGCAAG [Fam3.1 aminoacylation ribozyme variant]", "self-aminoacylation", 1.45),
    ("AUUACCCUGGUCAUCGCGUGA [Fam2.1 aminoacylation ribozyme variant]", "self-aminoacylation", 8.09),
]
